Hello, the source for this data is the supplement of paper PMC9112550, in case you need it.

System: Escherichia coli TOP10
PROTOCOL SUMMARY: shrunken log2 fold change of peptide-encoding DNA abundance (4.5 h post-induction vs induction); higher = less antimicrobial activity (less host growth inhibition)
SETTINGS: time post-induction: 4.5 h; library: site-saturation at positions 5, 18, 19, 20
shrunken log2 fold change vs -0.04: at or above is Condition met, below is Condition not met.

Sample answers from the record:
- RRIRWRPPRLPRPRPRPKGGPRP: Condition met
- RRIRARPPRLPRPRPRPCAYPRP: Condition not met
- RRIRARPPRLPRPRPRPSNNPRP: Condition not met
- RRIRLRPPRLPRPRPRPCNEPRP: Condition not met

API: the following record is the query input.
Is shrunken log2 fold change for `RRIRHRPPRLPRPRPRPNIQPRP` at or above -0.04? Condition not met

* * *

System: Escherichia coli TOP10
PROTOCOL SUMMARY: shrunken log2 fold change of peptide-encoding DNA abundance (4.5 h post-induction vs induction); higher = less antimicrobial activity (less host growth inhibition)
SETTINGS: time post-induction: 4.5 h; library: site-saturation at positions 5, 18, 19, 20
shrunken log2 fold change vs -0.07: at or above is yes, below is no.

• RRIRLRPPRLPRPRPRPGLTPRP = yes
• RRIRARPPRLPRPRPRPPFQPRP = yes
• RRIRQRPPRLPRPRPRPFWGPRP = yes
• RRIRIRPPRLPRPRPRPLPMPRP = no
• RRIRFRPPRLPRPRPRPPAMPRP = yes

Is shrunken log2 fold change for `RRIRLRPPRLPRPRPRPDFKPRP` at or above -0.07? yes

Param item: `RRIRCRPPRLPRPRPRPGHSPRP` no

Param item: `RRIRRRPPRLPRPRPRPPQNPRP` yes

Param item: `RRIRTRPPRLPRPRPRPKMRPRP` yes

Param item: `RRIRVRPPRLPRPRPRPQFRPRP` no

Param item: `RRIRQRPPRLPRPRPRPECQPRP` no

* * *

System: Escherichia coli TOP10
PROTOCOL SUMMARY: shrunken log2 fold change of peptide-encoding DNA abundance (4.5 h post-induction vs induction); higher = less antimicrobial activity (less host growth inhibition)
SETTINGS: time post-induction: 4.5 h; library: site-saturation at positions 5, 18, 19, 20
Classify by shrunken log2 fold change. Ranges: range 1 (below -0.2), range 2 (-0.2 to below 0.01), range 3 (0.01 or more)

* RRIRRRPPRLPRPRPRPLRAPRP | range 3
* RRIRFRPPRLPRPRPRPLDDPRP | range 1
* RRIRTRPPRLPRPRPRPVQEPRP | range 3

Category of `RRIRTRPPRLPRPRPRPMSLPRP` , please. range 2

Param item: `RRIRERPPRLPRPRPRPSEDPRP` range 2

Param item: `RRIRQRPPRLPRPRPRPEARPRP` range 2

Param item: `RRIRFRPPRLPRPRPRPSSQPRP` range 1

Param item: `RRIRKRPPRLPRPRPRPFYCPRP` range 2

Param item: `RRIRHRPPRLPRPRPRPDFAPRP` range 1

Param item: `RRIRDRPPRLPRPRPRPPQIPRP` range 2

Param item: `RRIRSRPPRLPRPRPRPCTRPRP` range 2

Param item: `RRIRLRPPRLPRPRPRPLDMPRP` range 1

Param item: `RRIRDRPPRLPRPRPRPNIKPRP` range 1

Param item: `RRIRSRPPRLPRPRPRPWWSPRP` range 1

Param item: `RRIRDRPPRLPRPRPRPMRKPRP` range 3

Param item: `RRIRLRPPRLPRPRPRPNWRPRP` range 3

Param item: `RRIRERPPRLPRPRPRPWNIPRP` range 1

Param item: `RRIRTRPPRLPRPRPRPEDEPRP` range 3

* * *

Test system: Escherichia coli TOP10
PROTOCOL SUMMARY: shrunken log2 fold change of peptide-encoding DNA abundance (4.5 h post-induction vs induction); higher = less antimicrobial activity (less host growth inhibition)
SETTINGS: time post-induction: 4.5 h; library: site-saturation at positions 5, 18, 19, 20
shrunken log2 fold change vs 0.04: at or above is Satisfied, below is Not satisfied.

- RRIRERPPRLPRPRPRPVPGPRP: Satisfied
- RRIRARPPRLPRPRPRPTGNPRP: Satisfied
- RRIRKRPPRLPRPRPRPAYPPRP: Not satisfied
- RRIRKRPPRLPRPRPRPKTIPRP: Satisfied
- RRIRCRPPRLPRPRPRPDFPPRP: Satisfied
- RRIRTRPPRLPRPRPRPGVSPRP: Not satisfied
- RRIRYRPPRLPRPRPRPRSRPRP: Satisfied
- RRIRNRPPRLPRPRPRPEWIPRP: Not satisfied

API: the following record is the query input.
Is shrunken log2 fold change for `RRIRNRPPRLPRPRPRPRIQPRP` at or above 0.04? Satisfied

* * *

Tested on: Escherichia coli TOP10
PROTOCOL SUMMARY: shrunken log2 fold change of peptide-encoding DNA abundance (4.5 h post-induction vs induction); higher = less antimicrobial activity (less host growth inhibition)
SETTINGS: time post-induction: 4.5 h; library: site-saturation at positions 5, 18, 19, 20
Task for the reader: assign each of the following sequences its reported shrunken log2 fold change.
Give bare numbers.

Look over these answered cases.
* RRIRARPPRLPRPRPRPENWPRP | 0.569
* RRIRFRPPRLPRPRPRPNNRPRP | -0.139
* RRIRCRPPRLPRPRPRPNYTPRP | -0.879
* RRIRDRPPRLPRPRPRPRNRPRP | 0.0378
* RRIRPRPPRLPRPRPRPPKNPRP | 0.26
* RRIRYRPPRLPRPRPRPERQPRP | -0.01
* RRIRFRPPRLPRPRPRPRGYPRP | -0.25
* RRIRYRPPRLPRPRPRPQDSPRP | -0.0125
* RRIRHRPPRLPRPRPRPTYLPRP | -0.133
* RRIRFRPPRLPRPRPRPLIWPRP | -0.13

For the 2 sequences below, give their shrunken log2 fold change values.
1. RRIRRRPPRLPRPRPRPADLPRP
2. RRIRNRPPRLPRPRPRPILVPRP

1. -0.141
2. -0.0115

For the 4 sequences below, give their shrunken log2 fold change values.
1. RRIRGRPPRLPRPRPRPSRGPRP
2. RRIRRRPPRLPRPRPRPPTAPRP
3. RRIRKRPPRLPRPRPRPGGMPRP
4. RRIRQRPPRLPRPRPRPDVAPRP

0.605
0.569
0.633
-0.116

For the 5 sequences below, give their shrunken log2 fold change values.
1. RRIRERPPRLPRPRPRPIPMPRP
2. RRIRYRPPRLPRPRPRPSKNPRP
3. RRIRPRPPRLPRPRPRPEHKPRP
4. RRIRCRPPRLPRPRPRPKVKPRP
5. RRIRQRPPRLPRPRPRPKVSPRP

1. -0.136
2. -0.722
3. -0.00916
4. -0.133
5. -0.073

For the 3 sequences below, give their shrunken log2 fold change values.
1. RRIRTRPPRLPRPRPRPFTLPRP
2. RRIRPRPPRLPRPRPRPPSMPRP
3. RRIRPRPPRLPRPRPRPGISPRP

[-0.312, 0.29, -0.155]

For the 3 sequences below, give their shrunken log2 fold change values.
1. RRIRKRPPRLPRPRPRPTRYPRP
2. RRIRLRPPRLPRPRPRPYTQPRP
3. RRIRLRPPRLPRPRPRPEEDPRP

0.438
-0.845
-0.00133

For the 4 sequences below, give their shrunken log2 fold change values.
1. RRIRSRPPRLPRPRPRPMLKPRP
2. RRIRNRPPRLPRPRPRPRAIPRP
3. RRIRCRPPRLPRPRPRPDLAPRP
4. RRIRNRPPRLPRPRPRPAHNPRP

1. -0.0793
2. 0.064
3. 0.102
4. -0.259

For the 3 sequences below, give their shrunken log2 fold change values.
1. RRIRSRPPRLPRPRPRPHTCPRP
2. RRIRIRPPRLPRPRPRPGLIPRP
3. RRIRSRPPRLPRPRPRPEDHPRP

1: -0.215; 2: -0.627; 3: 0.146

For the 6 sequences below, give their shrunken log2 fold change values.
1. RRIRWRPPRLPRPRPRPVWRPRP
2. RRIRQRPPRLPRPRPRPYNRPRP
3. RRIRLRPPRLPRPRPRPIGIPRP
4. RRIRHRPPRLPRPRPRPQPSPRP
5. RRIRPRPPRLPRPRPRPILKPRP
6. RRIRPRPPRLPRPRPRPEFNPRP

1: 0.488; 2: -0.0882; 3: -0.179; 4: 0.111; 5: -0.14; 6: 0.0717

* * *

Test system: Escherichia coli TOP10;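 note: peptides expressed intracellularly from a pBAD plasmid library in pooled LB shake-flask culture, induced with 0.3% L-arabinose, DNA abundance read by NGS, three biological replicates, DESeq2 with apeglm shrinkage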
PROTOCOL SUMMARY: shrunken log2 fold change of peptide-encoding DNA abundance (4.5 h post-induction vs induction); higher = less antimicrobial activity (less host growth inhibition)
SETTINGS: time post-induction: 4.5 h; library: site-saturation at positions 5, 18, 19, 20
Task for the reader: assign each of the following sequences its reported shrunken log2 fold change.
Give bare numbers.

* RRIRWRPPRLPRPRPRPFKKPRP | 0.149

For the 8 sequences below, give their shrunken log2 fold change values.
1. RRIRWRPPRLPRPRPRPWDTPRP
2. RRIRSRPPRLPRPRPRPMADPRP
3. RRIRFRPPRLPRPRPRPTVRPRP
4. RRIRWRPPRLPRPRPRPHLEPRP
5. RRIRNRPPRLPRPRPRPFPIPRP
6. RRIRLRPPRLPRPRPRPFTCPRP
7. RRIRWRPPRLPRPRPRPHQLPRP
8. RRIRVRPPRLPRPRPRPDGPPRP

1: 0.0106; 2: -0.0211; 3: 0.0843; 4: -0.16; 5: -0.132; 6: -0.115; 7: 0.117; 8: 0.0955

For the 2 sequences below, give their shrunken log2 fold change values.
1. RRIRSRPPRLPRPRPRPLDEPRP
2. RRIRYRPPRLPRPRPRPINPPRP

1: 0.189; 2: -0.269

For the 2 sequences below, give their shrunken log2 fold change values.
1. RRIRRRPPRLPRPRPRPWNMPRP
2. RRIRMRPPRLPRPRPRPWAWPRP

-0.479
-0.0978

For the 7 sequences below, give their shrunken log2 fold change values.
1. RRIRLRPPRLPRPRPRPDFVPRP
2. RRIRFRPPRLPRPRPRPADMPRP
3. RRIRLRPPRLPRPRPRPLLVPRP
4. RRIRPRPPRLPRPRPRPQWQPRP
5. RRIRRRPPRLPRPRPRPTYQPRP
6. RRIRWRPPRLPRPRPRPDEWPRP
7. RRIRGRPPRLPRPRPRPWMSPRP

1. -0.108
2. -0.155
3. -0.12
4. -0.109
5. 0.112
6. 0.253
7. 0.0647
